System name: T1, human mpl receptor (human, UniProt P40238 26-635)
T1 sequence (looked up): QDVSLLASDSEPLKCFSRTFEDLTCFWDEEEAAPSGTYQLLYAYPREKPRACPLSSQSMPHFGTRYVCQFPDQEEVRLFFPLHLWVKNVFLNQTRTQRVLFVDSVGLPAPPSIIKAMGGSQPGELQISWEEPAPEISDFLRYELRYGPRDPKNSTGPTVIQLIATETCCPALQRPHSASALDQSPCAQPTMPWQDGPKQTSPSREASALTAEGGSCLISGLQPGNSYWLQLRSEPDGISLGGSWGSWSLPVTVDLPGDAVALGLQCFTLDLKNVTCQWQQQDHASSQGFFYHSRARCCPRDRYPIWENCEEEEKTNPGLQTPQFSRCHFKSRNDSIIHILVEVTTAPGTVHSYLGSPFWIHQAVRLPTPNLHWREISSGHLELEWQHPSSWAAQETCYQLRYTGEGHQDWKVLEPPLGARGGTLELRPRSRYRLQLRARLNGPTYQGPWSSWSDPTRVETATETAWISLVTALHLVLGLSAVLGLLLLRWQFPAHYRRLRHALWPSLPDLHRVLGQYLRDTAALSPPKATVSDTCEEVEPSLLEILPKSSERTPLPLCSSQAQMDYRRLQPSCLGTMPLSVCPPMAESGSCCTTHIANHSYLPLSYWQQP
Protocol details: cell-based or functional assay
Endpoint name: In vitro EC50 (nM)
Numbers only, in nM.

What value of measured In vitro EC50 is listed for Fc-Loop (Sym) (SEQ ID NO: 9) (Fc fusion) MDKTHTCPPCPAPELLGGPSVFLFPPKPKDTLMISRTPEVTCVVVDVSHEDPEVKFNWYVDGVEVHNAKTKPREEQYNSTYRVVSVLTVLHQDWLNGKEYKCKVSNKALPAPIEKTISKAKGQPREPQVYTLPPSRDELGGQGCSSGGPTLREWQQCRRMQHSGGTKNQVSLTCLVKGFYPSDIAVEWESNGQPENNYKTTPPVLDSDGSFFLYSKLTVDKSRWQQGNVFSCSVMHEALHNHYTQKSLSLSPGK ? 0.0137
